The measured values listed here are drawn from PubChem BioAssay (NCI).

assay: NCI Yeast Anticancer Drug Screen. Data for the rad52 strain (AID 147);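 further: 0% = growth of vehicle-treated control cultures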; settings: S. cerevisiae rad52 mutant growth inhibition; at 100.0 µM
Compounds without any hit were thinned out: in the full panel of roughly 79,000, 15% have a hit. Calls of active or inactive are those of the source. No stated cut-off is given here; in the data, active means growth inhibition above about 70%; inactive means the rest.
Mark one answer only. Choices: active, inactive

> print(dat)
                                   molecule  label.class
1  O=C(O)/C=C\C(=O)Nc1ccc2c(c1)Cc1cc(Cl)ccc1-2     inactive
2        CN(CCOc1ccc(Cl)cc1)CCOc1ccc(Cl)cc1       active
3  O=C1C=C(NCCc2cc(Br)c(O)c(Br)c2)C(=O)c2ncccc21       active

Challenge: # outcome recorded in this test, key = COC(=O)C1CCCCC1C(=O)Nc1ccccc1 (centres undefined)
Response given: inactive

Challenge: # outcome recorded in this test, key = CCOC(=S)SSSC(=S)OCC
Response given: active

Challenge: # outcome recorded in this test, key = Clc1nc(Cl)nc(Nc2cccc3ccccc23)n1
Response given: active

---

test: NCI Yeast Anticancer Drug Screen. Data for the CLN2oe strain (AID 163);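 further: 0% = growth of vehicle-only control cultures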; settings: S. cerevisiae CLN2oe strain, at 1.2 µM, active compounds read high
The panel holds about 79,000 compounds, 15% with a hit somewhere; the sample as a whole holds those more often.
This listing pairs compounds with measured growth inhibition.
Provide the reading as a plain figure in %.

Worked cases, growth inhibition given:
COMPOUND	UOM	MEASURED
CC1(C)C(O)OC(O)C1(C)C (stereo unspecified)	%	-10
CCOc1ccc(N)c(S)c1	%	0
O=[N+]([O-])c1ccc2[nH]c3c(-c4ccccc4)nccc3c2c1	%	-8
CC1(c2ccccc2)O[C@@H]2C[C@H]3[C@@H]4CCC5=CC(=O)C=C[C@]5(C)[C@@]4(F)[C@@H](O)C[C@]3(C)[C@]2(C(=O)CO)O1 (stereo partly specified)	%	-5
Brc1ccc(B2Nc3ccccc3N2)cc1	%	-3
O=C1c2cccc3cccc(c23)C(=O)N1CCNCCN1C(=O)c2cccc3cccc(c23)C1=O	%	-1
O=C1/C(=C/c2ccc(Cl)c(Cl)c2)CNC/C1=C\c1ccc(Cl)c(Cl)c1	%	15
O=S1(=O)CCC2=CC(C(F)(F)F)=CC(C(F)(F)F)=CN21	%	25
CCCC/C=C1\CCC(CN2CCCC2)C1=O (stereo unspecified)	%	28
O=C(O)C1CCCCC1c1c2ccc(=O)cc-2oc2cc(O)ccc12 (stereo unspecified)	%	13

Please turn your attention to the following entry.
Challenge: What value of growth inhibition has been reported for the following compound? O=S(=O)(NNc1ccccc1)c1ccccc1
Response given: 0

---

test: NCI Yeast Anticancer Drug Screen. Data for the mec2-1 strain (AID 157); conditions: S. cerevisiae mec2-1 strain, at 5.0 µM (retest, dose inferred, filed as 0.5)
The panel holds about 79,000 compounds, 15% with a hit somewhere; the sample as a whole holds those more often. Active and inactive are the calls of the source. Cut-off read from the data, not from the text of the source: active = growth inhibition above about 70%; inactive = the rest.
Mark one answer only. Choices: 1 = active, 0 = inactive

Answered cases to consult:
COMPOUND	LABEL_CLASS
CCCCCCCN(CCCCCCC)CC(=O)c1ccc2cc(Cl)c3ccccc3c2c1	0
C=CCNC1=C2C[C@@H](C)C[C@H](OC)[C@H](O)[C@@H](C)/C=C(\C)[C@H](OC(N)=O)[C@@H](OC)/C=C\C=C(/C)C(=O)NC(=CC1=O)C2=O	0
CCN(CC)CCNc1ccc2ncn3c4ccc(O)cc4c(=O)c1c23	0
O=C(Nc1cccs1)c1ccccc1	0
COc1ccc(/C=C2\SC(=S)N(/C=C3\C(=O)N(c4ccccc4)N=C3C)C2=O)cc1OC	0
N#[N+]c1c([O-])c2ccccc2c2ccccc12	0
CN(N=O)C(=O)Nc1ccc(C(=O)O)cc1	0
Cc1ccc(NC(=O)CCC(=O)C(C)C(=O)c2ccccc2)c(C)c1 (stereo not given)	0
O=C1c2ccccc2C(=O)c2sc(Nc3ccccc3Cl)nc21	1
CC1(C)CC(=O)C(C(=O)Nc2cccs2)=C(O)C1	0

Challenge: # outcome recorded in this test, key = O=C(/C=C/c1ccsc1)c1cccs1
Response given: 0

Challenge: # outcome recorded in this test, key = C[n+]1c(/C=C/c2ccc(/C=N/NC(=O)c3ccc(C(=O)N/N=C/c4ccc(/C=C/c5cn6ccccc6[n+]5C)cc4)cc3)cc2)cn2ccccc21
Response given: 1

Challenge: # outcome recorded in this test, key = O=[N+]([O-])c1ccc(S(=O)(=O)Cc2ccccc2)c([N+](=O)[O-])c1
Response given: 0
